# assay_explanation: Parallel Artificial Membrane Permeability Assay (PAMPA)
# Format: in vitro ADME
# condition_label: apical and basolateral pH 7.4
# Method: All experiments are conducted in triplicate determinations.
readout_name: Papp at 4 h, 100 µM (×10⁻⁶ cm/s)

Examples from the recorded data:
The molecule CC(C)(C)N[C@@H]1CC[C@H](N2CC[C@H](Nc3ncnc4cnc(C(C)(C)C)nc34)C2=O)[C@H](NS(C)(=O)=O)C1 showed Papp at 4 h, 100 µM equal to 54.1

The molecule CCC(=O)N[C@@H]1C[C@H](NC(C)(C)C)CC[C@@H]1N1CC[C@H](NC(=O)c2ccnc(C(C)(C)C)n2)C1=O showed Papp at 4 h, 100 µM equal to 23.9

The molecule CCC(=O)N[C@@H]1C[C@H](N)CC[C@@H]1N1CC[C@H](Nc2ncnc3ccc(C(F)(F)F)cc23)C1=O showed Papp at 4 h, 100 µM equal to 22.8

a. CC(=O)N[C@@H]1C[C@H](N(C)C(C)C)CC[C@@H]1N1CC[C@H](Nc2ncnc3cnc(C(C)(C)C)nc23)C1=O
b. CC(C)N(C)[C@@H]1CC[C@H](N2CC[C@H](Nc3ncnc4ccc(C(F)(F)F)cc34)C2=O)[C@H](NC=O)C1
Of the two listed items, a and b , which carries the larger Papp at 4 h, 100 µM figure? # answer = label of selected item
b

---

# assay_target: UniProt P41597
# Sequence (P41597 1-360 isoform P41597-2): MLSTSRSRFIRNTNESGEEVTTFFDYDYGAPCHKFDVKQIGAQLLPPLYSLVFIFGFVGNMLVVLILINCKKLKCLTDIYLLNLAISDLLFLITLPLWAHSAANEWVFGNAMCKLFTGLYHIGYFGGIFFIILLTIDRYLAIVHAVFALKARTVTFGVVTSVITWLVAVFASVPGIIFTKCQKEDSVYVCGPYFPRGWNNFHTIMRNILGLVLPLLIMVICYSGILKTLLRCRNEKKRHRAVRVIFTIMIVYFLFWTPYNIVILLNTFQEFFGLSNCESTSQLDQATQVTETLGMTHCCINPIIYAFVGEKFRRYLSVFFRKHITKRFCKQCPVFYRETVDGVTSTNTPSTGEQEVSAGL
# assay_explanation: Human peripheral blood mononuclear cell binding (CCR2 binding), 125I-human MCP-1 tracer
# Parameters: hPBMCs were isolated from human leukopak (Biological Specialty Inc.); endogenous in cells; host or cells: human peripheral blood mononuclear cells from leukopak (Biological Specialty Inc.)
# condition_label: metabolite examples; hPBMCs, 125I-MCP-1; read-out: PBMC Binding IC50
pIC50: −log10 of the molar value.
readout_name: pIC50

1. CC(=O)N[C@@H]1C[C@H](NC(C)(C)C)CC[C@@H]1N1CC[C@H](Nc2nc[n+]([O-])c3ccc(C(F)(F)F)cc23)C1=O
2. CC(=O)N[C@@H]1C[C@H](N)CC[C@@H]1N1CC[C@H](Nc2ncnc3ccc(C(F)(F)F)cc23)C1=O
3. CC(=O)N[C@@H]1C[C@H](N(C)C(C)C)CC[C@@H]1N1CC[C@H](Nc2nc[n+]([O-])c3ccc(C(F)(F)F)cc23)C1=O
Could you please order the items by pIC50, going from the lowest number to the highest? // ordering of labels required in reply
3, 1, 2
(3: 7.56, 1: 7.83, 2: 8.46)
